experiment: NCI Yeast Anticancer Drug Screen. Data for the bub3 strain (AID 167); conditions: S. cerevisiae bub3 mutant strain, at 100.0 µM, stronger effect = higher value
This is part of a sample that, as a whole, favours compounds with a hit. Of some 79,000 tested, about 15% had one in any assay. Activity calls are given as the source filed them. Rule as the data show it: active = growth inhibition above about 70%; inactive = the rest.
parameter: growth inhibition

CC(=O)C1(O)Cc2c(O)c3c(c(O)c2C(OC2CC(N)C(O)C(C)O2)C1)C(=O)c1ccccc1C3=O (stereo unspecified) | 98% (active)
O=Nc1ccc(Nc2ccccc2)cc1 | 97% (active)
O=C(CNS(=O)(=O)Cc1ccccc1)NNc1ccccc1 | 10% (inactive)
CCC(c1ccc(O)cc1)C(CC)c1ccc(OCCN)cc1 (stereo unspecified) | 72% (active)
CN(N=O)c1ccc(/C=C/c2ccnc3ccccc23)cc1 | 68% (inactive)
O=c1ccc(N=Nc2ccccc2)ccc1O | 99% (active)
CCOP1(=O)C=C(Sc2ccc([N+](=O)[O-])cc2[N+](=O)[O-])C(C)(C)O1 (stereo unspecified) | 92% (active)
Cc1ccc(S(=O)(=O)Nc2ccc3c(c2)C(O)c2ccccc2-3)cc1 (stereo unspecified) | 23% (inactive)
Cc1onc(-c2ccccc2Cl)c1C1=N/C(=C/c2cc(Cl)cc(Cl)c2O)C(=O)O1 | 68% (inactive)
Cc1cccc2c1N=C(C(F)(F)F)CC2=O | 37% (inactive)
O=C(NC(=S)Nc1ccccn1)c1ccccc1 | 19% (inactive)
Cc1ccc2occ/c(=N\Nc3ccccc3)c2c1 | 70% (active)
O=Nn1c2ccccc2c2ccccc21 | 59% (inactive)
CC1=CC2C(C(C)C)CC1C1C(=O)OC(=O)C21 (stereo unspecified) | 50% (inactive)
O=S(=O)(c1cc(Cl)ccc1O)c1cc(Cl)ccc1O | 99% (active)
COc1cc(/C=C/c2sc3ccccc3[n+]2C)ccc1N(C)C | 97% (active)
CC(=O)N1C(=O)/C(=C\C(=O)c2ccc([N+](=O)[O-])cc2)c2ccccc21 | 96% (active)
Cc1ccc(N=Nc2ccc(O)c(C)c2)cc1 | 84% (active)
CC1=CCC(C(C)(C)c2ccc(O)cc2)CC1 (stereo unspecified) | 97% (active)
COc1ccc(S(=O)(=O)N/N=C\c2cc([N+](=O)[O-])cc(I)c2O)c(OC)c1OC | 86% (active)
COc1cc(N(C)C)ccc1/C=C\c1ccnc2ccccc12 | 4% (inactive)
CC1(C)C(C=O)=CCC1CC(N)=O (stereo unspecified) | 93% (active)
CC(C)(O)c1ccccc1C(c1ccccc1)c1ccccc1 | 4% (inactive)
O=[N+]([O-])/C(C(Cl)=C(Cl)Cl)=C1/OCCS1 | 98% (active)
CN(C)Cc1cccc(CN(C)C)[c]1[Sn]([Br])([c]1ccccc1)[c]1ccccc1 | 95% (active)
COc1cc([C@@H]2c3cc4c(cc3[C@@H](OC3OC5COC(C)OC5C(O)C3O)[C@H]3COC(=O)[C@H]23)OCO4)cc(OC)c1O (stereo partly specified) | -5% (inactive)

* * *

assay: NCI Yeast Anticancer Drug Screen. Data for the mec2-1 strain (AID 157); settings: S. cerevisiae mec2-1 strain, at 50.0 µM (retest, dose inferred, filed as 5.0), stronger effect = higher value
This is part of a sample that, as a whole, favours compounds with a hit. Of some 79,000 tested, about 15% had one in any assay. The source made the active and inactive calls. No stated cut-off is given here; in the data, active means growth inhibition above about 70%; inactive means the rest.
parameter: growth inhibition

Cc1cc(Cl)ccc1NC(=O)/C(Cl)=C1/Sc2ccccc2NC1=O | 62% (inactive)
C/C(=N\NC(=S)NC1CCCC1)c1ccccn1 | 97% (active)
Oc1ccc(C=Nc2ccccc2O)cc1 | 14% (inactive)
NCc1c(O)ccc2ccccc12 | -15% (inactive)
S=c1[nH]c2c(Cl)c(Cl)c(Cl)c(Cl)c2[nH]1 | 98% (active)
O=C(NC(=S)Nc1ccccn1)c1ccccc1 | 100% (active)
O=c1[nH]cc(/C=N\Nc2ccccc2)c(=O)[nH]1 | 15% (inactive)
CC(=O)C1=C(O)C2(C)c3c(O)c(C)c(O)c(C(C)=O)c3OC2(Sc2ccccc2)CC1=O (configuration not stated) | 93% (active)
Clc1cc(Cc2ccc(N=C/C=C/c3ccccc3)c(Cl)c2)ccc1N=C/C=C\c1ccccc1 | 99% (active)
NC(N)=N/N=C/c1cc(Cl)cc(Cl)c1O | 96% (active)
O=C1c2ccccc2C(=O)c2cc(S(=O)(=O)Nc3ccccc3)ccc21 | 61% (inactive)
Cc1cc(C)c(N2C(=O)CC(Sc3ccccc3N)C2=O)c(C)c1 (configuration not stated) | 48% (inactive)
